Value source: paper PMC4657098

- target: α3β3γ2 GABAA/BzR (Homo sapiens, UniProt P18507+P34903)
- experiment-notes: Competition binding to HEK cell membranes, α3β3γ2
- Design: expressed in transfected cells
- assay-setup: read-out: Ki α3
pKi: −log10 of the molar value.
measured-attribute: pKi

[[record]]
compound = "CC(C)OC(=O)c1ncn2c1[C@@H]1CCCN1C(=O)c1ccccc1-2"
endpoint_result = 8.70

[[record]]
compound = "O=C(O)c1ncn2c1CN=C(c1ccccc1F)c1cc(Br)ccc1-2"
endpoint_result = 9.29

[[record]]
compound = "COc1ccc2c(c1)C(=O)N1CCC[C@H]1c1c(C(=O)OCc3ccccc3)ncn1-2"
endpoint_result = 7.85

[[record]]
compound = "CC(C)(C)OC(=O)c1cc2c(cn1)[nH]c1ccc(I)cc12"
endpoint_result = 6.91

[[record]]
compound = "CN1Cc2c(C(=O)OC3CC3)ncn2-c2ccc(Cl)cc2C1=O"
endpoint_result = 7.37

[[record]]
compound = "C#Cc1ccc2c(c1)C(=O)N(C)Cc1c(C(=O)OC(C)(C)C)ncn1-2"
endpoint_result = 7.73

[[record]]
compound = "COc1ccc2c(c1)C(=O)N(C)Cc1c(C(=O)OC(C)(C)C)ncn1-2"
endpoint_result = 8.13

[[record]]
compound = "CC(C)c1nc(-c2ncn3c2CN(C)C(=O)c2c(Cl)cccc2-3)no1 [FG8205, reference compound]"
endpoint_result = 8.94

[[record]]
compound = "CCOC(=O)c1cc2c(cn1)[nH]c1ccc(I)cc12"
endpoint_result = 7.47

[[record]]
compound = "O=C(OCC(F)(F)F)c1cc2c(cn1)[nH]c1ccc(-c3cccs3)cc12"
endpoint_result = 7.14

[[record]]
compound = "O=C1CN=C(c2ccccc2F)c2cc(Br)ccc2N1"
endpoint_result = 9.56

[[record]]
compound = "CCOC(=O)c1cc2c(cn1)[nH]c1ccc(C#C[Si](C)(C)C)cc12"
endpoint_result = 8.25

[[record]]
compound = "Fc1ccc2c(c1)[nH]c1c2ncc2[nH]c3ccccc3c21"
endpoint_result = 7.74

[[record]]
compound = "COc1ccc(-n2nc3c4ccc(OC)cc4[nH]cc-3c2=O)cc1"
endpoint_result = 9.10

[[record]]
compound = "O=C(OC(C(F)(F)F)C(F)(F)F)c1ncn2c1C1CCCN1C(=O)c1ccccc1-2 (stereo not shown) [MMB-III-18]"
endpoint_result = 7.11

[[record]]
compound = "O=C(OCC(F)(F)F)c1ncn2c1CN=C(c1ccccc1)c1ccccc1-2"
endpoint_result = 7.55

[[record]]
compound = "CCC(OC(=O)c1ncn2c1C1CCCN1C(=O)c1cc(F)ccc1-2)C(F)(F)F (mixture of isomers)"
endpoint_result = 7.47

[[record]]
compound = "C#Cc1ccc2c(c1)C(c1ccccc1F)=NCC(=O)N2 [JYI-60]"
endpoint_result = 8.37

[[record]]
compound = "CN1Cc2c(C(=O)OC(C)(C)C)ncn2-c2ccc(N3CCCC3)cc2C1=O"
endpoint_result = 6.77

[[record]]
compound = "CC(C)(C)OC(=O)c1cc2c(cn1)[nH]c1ccc(-c3ccco3)cc12"
endpoint_result = 7.56

[[record]]
compound = "COc1ccc2c(c1)C(=O)N1CC[C@H]1c1c(C(=O)OC(C)(C)C)ncn1-2"
endpoint_result = 7.52

[[record]]
compound = "COc1ccc2c(c1)C(=O)N1CCCC1c1c(C(=O)OC(C)C)ncn1-2 (stereo not shown) [CM-E09b]"
endpoint_result = 7.72

[[record]]
compound = "CC(C)(C)OC(=O)c1cc2c(cn1)[nH]c1ccc(-c3ccccc3)cc12"
endpoint_result = 7.35

[[record]]
compound = "CCC(C)OC(=O)c1cc2c(cn1)[nH]c1ccccc12 (stereo not shown)"
endpoint_result = 6.94

[[record]]
compound = "O=C(OCC(F)(F)F)c1ncn2c1CN=C(c1ccccc1F)c1cc(-c3ccco3)ccc1-2"
endpoint_result = 8.17

[[record]]
compound = "Cc1nnc2n1-c1ccc(Br)cc1C(c1ccccc1F)=NC2 [JYI-57]"
endpoint_result = 9.88

[[record]]
compound = "CC(C)OC(=O)c1ncn2c1[C@@H]1CCCN1C(=O)c1cc(Br)ccc1-2"
endpoint_result = 8.24

[[record]]
compound = "c1ccc2c(c1)[nH]c1c2ncc2[nH]c3ccccc3c21"
endpoint_result = 8.96

[[record]]
compound = "C#Cc1ccc2c(c1)C(c1ccccc1)=NCc1c(C(=O)OCC(F)(F)F)ncn1-2"
endpoint_result = 7.45

[[record]]
compound = "CC(C)(C)OC(=O)c1cc2c(cn1)[nH]c1ccc(F)cc12"
endpoint_result = 7.83

[[record]]
compound = "COc1ccc(-n2nc3c4cc(Cl)ccc4[nH]cc-3c2=O)cc1"
endpoint_result = 9.70

[[record]]
compound = "O=c1c2c[nH]c3ccccc3c-2nn1-c1ccccc1"
endpoint_result = 9.92

[[record]]
compound = "COc1ccc2c(c1)C(=O)N1CCC[C@H]1c1c(C(=O)OCC(F)(F)F)ncn1-2 [CM-E09a]"
endpoint_result = 6.91

[[record]]
compound = "Cc1nnc2n1-c1ccc(Br)cc1C(c1ccccc1F)=NC2 [JYI-64 (C17H12N4FBr)]"
endpoint_result = 9.21

[[record]]
compound = "C#Cc1ccc2c(c1)C(c1ccccc1F)=NC(C)C(=O)N2C (stereo not shown)"
endpoint_result = 7.70

[[record]]
compound = "CC[C@H](C)OC(=O)c1cc2c(cn1)[nH]c1ccccc12 [CM-A50 (S)]"
endpoint_result = 7.06

[[record]]
compound = "Cc1nnc2n1-c1ccc(Br)cc1C(c1ccccc1F)=NC2 [JYI-64]"
endpoint_result = 9.21


---

- target: α6β3γ2 GABAA/BzR (Homo sapiens, UniProt P18507+Q16445)
- experiment-notes: Competition binding to HEK cell membranes, α6β3γ2
- Parameters: expressed in transfected cells
- assay-setup: Ki α6
pKi: −log10 of the molar value.
measured-attribute: pKi

[[record]]
molecule = "CC(C)(C)OC(=O)c1ncn2c1[C@@H]1CCCN1C(=O)c1c(Br)cccc1-2 [BRETAZENIL, reference compound]"
target = "α6β3γ2 GABAA/BzR (Homo sapiens, UniProt P18507+Q16445)"
qualifier_symbol = "="
endpoint_result = 7.90

[[record]]
molecule = "CCCOc1cc2c(cn1)[nH]c1ccccc12.Cl [3 PBC, 3-propoxy-β-carboline hydrochloride]"
target = "α6β3γ2 GABAA/BzR (Homo sapiens, UniProt P18507+Q16445)"
qualifier_symbol = "="
endpoint_result = 6.00

[[record]]
molecule = "C#Cc1ccc2c(c1)C(=O)N1CCC1c1c(-c3ocnc3C(=O)OCC)ncn1-2 (centres unmarked) [RY-069]"
target = "α6β3γ2 GABAA/BzR (Homo sapiens, UniProt P18507+Q16445)"
qualifier_symbol = "="
endpoint_result = 6.00

[[record]]
molecule = "CC(C)(C)OC(=O)c1cc2c(cn1)[nH]c1ccccc12 [BCCt]"
target = "α6β3γ2 GABAA/BzR (Homo sapiens, UniProt P18507+Q16445)"
qualifier_symbol = "="
endpoint_result = 5.30

[[record]]
molecule = "O=C(OCC(F)(F)F)c1cc2c(cn1)[nH]c1ccc(I)cc12 [WY-B-20]"
target = "α6β3γ2 GABAA/BzR (Homo sapiens, UniProt P18507+Q16445)"
qualifier_symbol = "="
endpoint_result = 5.52

[[record]]
molecule = "C#Cc1ccc2c(c1)C(=O)N(C)Cc1c(C(=O)OCCCCCOC(=O)c3ncn4c3CN(C)C(=O)c3cc(C#C)ccc3-4)ncn1-2 [compound 56]"
target = "α6β3γ2 GABAA/BzR (Homo sapiens, UniProt P18507+Q16445)"
qualifier_symbol = "="
endpoint_result = 7.27

[[record]]
molecule = "C[Si](C)(C)C#Cc1ccc2[nH]c3cnc(C(=O)OCC(F)(F)F)cc3c2c1 [WY-B-25]"
target = "α6β3γ2 GABAA/BzR (Homo sapiens, UniProt P18507+Q16445)"
qualifier_symbol = "="
endpoint_result = 5.70

[[record]]
molecule = "O=C1C2C=Nc3ccccc3C2=NN1c1ccc(Cl)cc1 (centres unmarked) [CGS9896, reference compound]"
target = "α6β3γ2 GABAA/BzR (Homo sapiens, UniProt P18507+Q16445)"
qualifier_symbol = "="
endpoint_result = 6.74

[[record]]
molecule = "C#Cc1ccc2c(c1)C(=O)N(C)Cc1c(C(=O)OCC)ncn1-2 [RY-080 C17H15N3O3]"
target = "α6β3γ2 GABAA/BzR (Homo sapiens, UniProt P18507+Q16445)"
qualifier_symbol = "="
endpoint_result = 7.54

[[record]]
molecule = "C#Cc1ccc2[nH]c3cnc(C(=O)OCC(F)(F)F)cc3c2c1 [WY-B-26-2]"
target = "α6β3γ2 GABAA/BzR (Homo sapiens, UniProt P18507+Q16445)"
qualifier_symbol = "="
endpoint_result = 5.70

[[record]]
molecule = "CCOC(=O)c1ncc2[nH]c3ccc(OCc4ccccc4)cc3c2c1COC [ZK 93423, reference compound]"
target = "α6β3γ2 GABAA/BzR (Homo sapiens, UniProt P18507+Q16445)"
qualifier_symbol = "="
endpoint_result = 6.00

[[record]]
molecule = "CC(C)(C)OC(=O)c1cc2c(cn1)[nH]c1ccc(F)cc12 [CM-A87]"
target = "α6β3γ2 GABAA/BzR (Homo sapiens, UniProt P18507+Q16445)"
qualifier_symbol = "="
endpoint_result = 6.00

[[record]]
molecule = "CC(C)(C)OC(=O)c1cc2c(cn1)[nH]c1ccc(C(C)(C)C)cc12 [CM-A82a]"
target = "α6β3γ2 GABAA/BzR (Homo sapiens, UniProt P18507+Q16445)"
qualifier_symbol = "="
endpoint_result = 6.00

[[record]]
molecule = "C#Cc1ccc2c(c1)C(=O)N(C)Cc1c(C(=O)OCCCOC(=O)c3ncn4c3CN(C)C(=O)c3cc(C#C)ccc3-4)ncn1-2 [XLi-093 (4)]"
target = "α6β3γ2 GABAA/BzR (Homo sapiens, UniProt P18507+Q16445)"
qualifier_symbol = "<"
endpoint_result = 5.70

[[record]]
molecule = "C#Cc1ccc2c(c1)C(c1ccccc1F)=N[C@@H](C)c1c(C(=O)OCC)ncn1-2 [SH-O53-S-CH3-2′F]"
target = "α6β3γ2 GABAA/BzR (Homo sapiens, UniProt P18507+Q16445)"
qualifier_symbol = "="
endpoint_result = 5.30

[[record]]
molecule = "COCc1c(C(=O)OC(C)C)ncc2[nH]c3ccc(OCc4ccccc4)cc3c12 [ABECARNIL, reference compound]"
target = "α6β3γ2 GABAA/BzR (Homo sapiens, UniProt P18507+Q16445)"
qualifier_symbol = "="
endpoint_result = 6.00

[[record]]
molecule = "CCCOc1ccc2[nH]c3cnc(C(=O)OCC)c(COC)c3c2c1 [6-PBC]"
target = "α6β3γ2 GABAA/BzR (Homo sapiens, UniProt P18507+Q16445)"
qualifier_symbol = "="
endpoint_result = 5.87

